Entry source: the supplement of paper PMC8975748

test system: Saccharomyces cerevisiae BY4741 SeMeCo community; test: z-score of subpopulation abundance vs DMSO median, subpopulation auxotrophic for LM; higher = larger share of this subpopulation than in DMSO controls; settings: 10 µM; 24 h; SM minimal medium; subpopulation (auxotrophy): LM
As shown below, each of these compounds has a reported z-score of subpopulation abundance value.
Form field (numeric): enter value without unit.

Sample COC(=O)C1=C(C)NC(C)=C(C(=O)OCCN2CCN(C(c3ccccc3)c3ccccc3)CC2)C1c1cccc([N+](=O)[O-])c1 (centres undefined) [Manidipine 2HCl] — what was its z-score of subpopulation abundance?
2.4

# lookup: z-score of subpopulation abundance of Cc1c(C)c2c(c(C)c1O)CCC(C)(CCCC(C)CCCC(C)CCCC(C)C)O2 (centres undefined) [Vitamin E]
-0.64

Given the entry O=c1[nH]c(=O)n([C@H]2C[C@H](O)[C@@H](CO)O2)cc1I [Idoxuridine] , report its measured z-score of subpopulation abundance.
0.06
